Tested on: apoE secretion by THP-1 cell line
Format: cell-based, human
Assay Context: compound 25 μM; 1.25 nM PMA; THP-1 cells, 3 days
Test Readout: % ApoE Change (%)
Give a bare numeral; the unit % is implied.

CCOP(=O)(OCC)C(O)c1ccc(OCc2ccccn2)cc1 (stereo not shown)	−9
CCOP(=O)(OCC)OC(c1ccc(-c2ccccc2)cc1)P(=O)(OCC)OCC (stereo not shown)	172
CCOP(=O)(OCC)OC(c1cc(OC)c2c(c1)OCO2)P(=O)(OCC)OCC (stereo not shown)	−19
CCOP(=O)(OCC)OC(c1cccc(OCCCCCN2C(=O)c3ccccc3C2=O)c1)P(=O)(OCC)OCC (stereo not shown)	3375
CCOP(=O)(OCC)OC(c1ccc(OCc2cccnc2)cc1)P(=O)(OCC)OCC (stereo not shown)	95

Need % ApoE Change of CCOP(=O)(OCC)OC(c1cccc(OCc2cccnc2)c1)P(=O)(OCC)OCC (stereo not shown) , thanks.
52

Need % ApoE Change of CCOP(=O)(OCC)C(O)c1ccc(OCCCN2C(=O)c3ccccc3C2=O)cc1 (stereo not shown) , thanks.
543

* * *

System: apoE secretion by THP-1 cell line
Format: cell-based, human
Assay Context: compound 50 μM; 1.25 nM PMA; THP-1 cells, 3 days
Test Readout: % ApoE Change (%)
Give a bare numeral; the unit % is implied.

Guide cases for % ApoE Change, answers given:
CCOP(=O)(OCC)OC(c1cc(OC)c2c(c1)OCO2)P(=O)(OCC)OCC (stereo not shown)	3
CCOP(=O)(OCC)OC(c1cccc(OCc2cccnc2)c1)P(=O)(OCC)OCC (stereo not shown)	551
CCOP(=O)(OCC)C(O)c1ccc(OCc2ccccn2)cc1 (stereo not shown)	24
CCOP(=O)(OCC)OC(c1ccc(OCc2cccnc2)cc1)P(=O)(OCC)OCC (stereo not shown)	189
CCOP(=O)(OCC)C(O)c1ccc(OCCCN2C(=O)c3ccccc3C2=O)cc1 (stereo not shown)	961
CCOP(=O)(OCC)OC(c1cccc(OCCCCCN2C(=O)c3ccccc3C2=O)c1)P(=O)(OCC)OCC (stereo not shown)	1526

Please turn your attention to the following entry.
Need % ApoE Change of CCOP(=O)(OCC)OC(c1ccc(-c2ccccc2)cc1)P(=O)(OCC)OCC (stereo not shown) , thanks.
198

* * *

Test system: apoE secretion by THP-1 cell line
Type: cell-based, human
Assay Context: compound 100 μM; 2.5 nM PMA; THP-1 cells, 3 days
Experimental: The hydroxyphosphonates (Ia) and phosphonophosphates (Ib) of the invention can modulate (increase or decrease) the apoE production in plasma and in tissues. […] Medium contained in the wells is harvested and centrifuged 5 min at 1200 rpm. Supernatants are store at −20° C. until apoE quantification. The cell pellets are resuspended in PBS and counted with a Z1 Coulter Counter. […] The reaction is stopped with the addition of culture medium and the detached cells are counted. ApoE was quantified by ELISA. […]
Entries and their % ApoE Change values follow.
Give a bare numeral; the unit % is implied.

I'm curious: which % ApoE Change was measured for CCOP(=O)(OCC)OC(c1ccc(-c2ccccc2)cc1)P(=O)(OCC)OCC (stereo not shown) tested on apoE secretion by THP-1 cell line?
71

I'm curious: which % ApoE Change was measured for CCOP(=O)(OCC)OC(c1ccc(OCc2cccnc2)cc1)P(=O)(OCC)OCC (stereo not shown) tested on apoE secretion by THP-1 cell line?
434

I'm curious: which % ApoE Change was measured for CCOP(=O)(OCC)OC(c1cccc(OCCCCCN2C(=O)c3ccccc3C2=O)c1)P(=O)(OCC)OCC (stereo not shown) tested on apoE secretion by THP-1 cell line?
−92

I'm curious: which % ApoE Change was measured for CCOP(=O)(OCC)C(O)c1ccc(OCc2ccccn2)cc1 (stereo not shown) tested on apoE secretion by THP-1 cell line?
100

I'm curious: which % ApoE Change was measured for CCOP(=O)(OCC)OC(c1cc(OC)c2c(c1)OCO2)P(=O)(OCC)OCC (stereo not shown) tested on apoE secretion by THP-1 cell line?
40

I'm curious: which % ApoE Change was measured for CCOP(=O)(OCC)C(O)c1ccc(OCCCN2C(=O)c3ccccc3C2=O)cc1 (stereo not shown) tested on apoE secretion by THP-1 cell line?
465

I'm curious: which % ApoE Change was measured for CCOP(=O)(OCC)OC(c1cccc(OCc2cccnc2)c1)P(=O)(OCC)OCC (stereo not shown) tested on apoE secretion by THP-1 cell line?
98
